experimental-system: T1, human CD3 protein (human, UniProt P07766 23-126; P04234 22-105)
T1 construct: ELISA coating protein; also called Human CD3D & CD3E Heterodimer Protein
T1 sequence (P07766 23-126 limits assumed, chain 1 of 2): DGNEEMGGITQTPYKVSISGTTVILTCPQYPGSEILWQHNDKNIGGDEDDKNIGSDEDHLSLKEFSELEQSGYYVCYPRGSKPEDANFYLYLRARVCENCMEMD
T1 sequence (P04234 22-105 limits assumed, chain 2 of 2): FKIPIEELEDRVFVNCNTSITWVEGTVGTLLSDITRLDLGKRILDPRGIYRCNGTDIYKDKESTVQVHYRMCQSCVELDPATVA
test-details: ELISA, plate-coated CD3;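 also: binding to plate-immobilized human CD3 protein, bound antibody detected with peroxidase-labelled anti-human IgG and TMB, read as absorbance at 450 nm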
Entries and their EC50
Please report the result as a number followed by the unit.

binder	assay-metric	data-value
Hu192A7B9-17 (antibody, V domains shown, humanized mAb) VH: EVQLQESGPGLVKPSETLSLTCTVSGFSISSYNVHWVRQPPGKGLEWMGRMRYNGDTSYNSALKSRLTISRDTSKNQVSLKLSSVTAADTAVYYCTRGPRGGYYSALFDYWGQGTMVTVSS VL: DIQMTQSPSSLSASVGDRVTITCKASQNINRYLNWYQQKPGKAPKLLISIANSLQTGIPSRFSGSGSGTDFTLTISSLQPEDFATYYCLQHNSWYTFGQGTKLEIK	EC50	4.46 ng/mL
Hu155A9B1-14 (antibody, V domains shown, humanized mAb) VH: EVQLQESGPGLVKPSETLSLTCTVSGGSISSYNVHWVRQPPGKGLEWIGRVRYNGDTSYNSALKSRVTISRDTSKNQFSLKLSSVTAADTAVYYCARGPYGGSSEPLFDYWGQGTMVTVSS VL: DIQMTQSPSSLSASVGDRVTITCKASQNINKYLNWFQQKPGKAPRLLIYTTNNLQTGIPSRFSGSGSGTDFTLTISSLQPEDFATYFCLQHNSGYTFGQGTKLEIK	EC50	5.66 ng/mL
Hu155A9B1-1 (antibody, V domains shown, humanized mAb) VH: EVQLQESGPGLVKPSETLSLTCTVSGGSISSYNVHWIRQPPGKGLEWIGRVRYNGDTSYNSALKSRVTISVDTSKNQFSLKLSSVTAADTAVYYCARGPYGGSSEPLFDYWGQGTMVTVSS VL: DIQMTQSPSSLSASVGDRVTITCKASQNINKYLNWYQQKPGKAPRLLIYTTNNLQTGVPSRFSGSGSGTDFTLTISSLQPEDFATYYCLQHNSGYTFGQGTKLEIK	EC50	428 ng/mL

[ask] Look up EC50 for this binder: Hu155A9B1-12 (antibody, V domains shown, humanized mAb) VH: EVQLQESGPGLVKPSETLSLTCTVSGFSLTSYNVHWVRQPPGKGLEWMGRVRYNGDTSYNSALKSRLTISRDTSKNQASLKLSSVTAADTAVYYCTRGPYGGSSEPLFDYWGQGTMVTVSS VL: DIQMTQSPSSLSASVGDRVTITCKASQNINKYLNWFQQKPGKAPRLLIYTTNNLQTGIPSRFSGSGSGTDFTLTISSLQPEDFATYYCLQHNSGYTFGQGTKLEIK
[reply] 3.35 ng/mL

[ask] Suppose we examine the binder Hu155A9B1-17 (antibody, V domains shown, humanized mAb) VH: EVQLQESGPGLVKPSETLSLTCTVSGFSISSYNVHWVRQPPGKGLEWMGRVRYNGDTSYNSALKSRLTISRDTSKNQASLKLSSVTAADTAVYYCTRGPYGGSSEPLFDYWGQGTMVTVSS VL: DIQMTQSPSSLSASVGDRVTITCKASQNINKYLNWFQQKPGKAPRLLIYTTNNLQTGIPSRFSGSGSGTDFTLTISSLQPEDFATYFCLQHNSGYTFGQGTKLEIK ; what EC50 value has been reported?
[reply] 3.07 ng/mL

These data points were gathered from patent US20240417469A1.
